src = patent US20240043859A1

- Format: cell-based, Escherichia coli
parameter-measured: Chromogenic reaction of degrading herbicides in bacteria: MCPA

The cases that follow already have their Chromogenic reaction of degrading herbicides in bacteria: MCPA on record.
QYD49: AAD-like enzyme, SEQ ID NO. 97 (protein, Synthetic polypeptide, QYD49, D49) MARTFDIEPLAGTTFGAVVRGMKVAILDDAGWRDLYAAWLKYALLVFPGQHLKRDEQIAFAKRFGALEFEMAALSNVKSDGTLRQEKDNDDMMKILKGNMGWHADSTYMPVQAKGAVFSAEIVPGAGGQTGFADMRAAYDALDAGRKAKVERLAAHHSLHYSQSKLGHQTKKQDGEYSGYGLHDGPVPLRPLVKTHPETGRKSLLIGRHAHNIPGMDKAESERLLQELVDFACQPPRVYHHDWTAGDAVVWDNRCLLHQATPWDMTQPRVMWHSRIAGDPRSEAALGVTAVSAAASG
Yes
QYD57: AAD-like enzyme, SEQ ID NO. 113 (protein, Synthetic polypeptide, QYD57, D57) MPQHFDVAPVDATFGAVVTNLKLANLDEPAFRELYATWLEHALLIFPGQFLTREQQIAFARRFGALEFEMAAISNVKSDGTLRREADNDDVVKILKGNMGWHADSTYMPLQAKGAVFSAKVVPSARGETGWADMRAAYDALDAAVRDRVERLSAYHSLHYSQAKAGFQHKDKKSEYSGYGLHDGPVPLRPLVKTHPETGRKSLLIGRHAHNIPGMEPEESERLLDGLVEFACQAPRTYHHSWKPGEAVIWDNRCLLHRAMPWDMTEPRIMWHSRIAGDPASEAAIN
Yes
QYD33: AAD-like enzyme, SEQ ID NO. 65 (protein, Synthetic polypeptide, QYD33, D33) MSEHFDVEPLDASFGARITGLKLTEMSDAAFDALYETWLEHGLLLFPDQHMEPEAQVDVARRFGPLEVKLFAISNLKDDGSVRTSDEDDLVKILKGNMGWHHDSTYMPLQAKGAVFSAHVVPSEGGETGFADMRQAWDALDDDMKRRLEGLTALHSLHYSQMKAGFRRKEKDSEYIGYGLDERPPVRRQMVKVHPETGRKSLLVGRHAFGVSGMSEKESEEFVDGLNEFAGSGDWTYHHKWTPGEVVLWDNRCLMHRACPWDMTKPRVMYHSRIAGDPVSEAEVAA
NO
QYD34: AAD-like enzyme, SEQ ID NO. 67 (protein, Synthetic polypeptide, QYD34, D34) MSMQVIPLDATFGATVTGLKLSELDEAVFAEIYDHWLRYSLLVFPGQNLDNEQQVTFAKRFGALEIDLVELSNVKDDGSLRTAPDDDRIKILKGNMGWHHDSTYMPVQAKGAVFRADTVPSHGGETGWADMCAAYDALGDAMRNRIEGLSAHHSLTYSQGKAGFKHKDKDSEYNGYGLDQDGAPLRPLVKTHAETGRKTLTIGRHAHAVPGLSQADSEALLTELVDFACQPPRIYHHGWQPGDVVVWDNRCLMHQACPWDMAERRVMFHSRLAGDPEHEFAAPN
NO

For this molecule ( QYD74: AAD-like enzyme, SEQ ID NO. 147 (protein, Synthetic polypeptide, QYD74, D74) MARAFDIEPLDATFGAIITGVKLAALDDAVWRDLYAAWLEYALLIFPSQNLGRDEQIAFAKRFGALEFELAPISNVNSDGTLITDPDNDILKVLKGNMGWHSDSTYMPIQAKGAVFSARVVPKSGGSTGWADMRAAYDALDDNLKRKVERLAAHHSLRYSQAKLGHFPKKHSAYSGYGFHDGPEPLRPLVKTHPETGRKSLLIGRHAHNIPGMSAEESERFLQELVDFACRPPRVYHHEWTAGDVAVWDNRCLLHQATPWDMSEPRVMWHSRIAGDPTTESALA ), measured Chromogenic reaction of degrading herbicides in bacteria: MCPA is Yes
